src = PubChem BioAssay AID1963970

tested on: 931267-113-T-J1-PDC multicell spheroid viability; assay: Anticancer human tumor 931267-113-T-J1-PDC patient-derived colon adenocarcinoma cell line growth inhibition [PI3K]; settings: second compound 0.1 µM; first compound 1 µM; hits give low values
Here, each record is paired with measured viability, T/C data.
Please state the figure in %; there is no need to write the unit.

Recorded results for 4 molecules are shown here.
Query: Could you tell me which viability, T/C is on file for C=CC(=O)N1CCN(c2nc(=O)n(-c3c(C)ccnc3C(C)C)c3nc(-c4c(O)cccc4F)c(F)cc23)C(C)C1 (stereo not given) + COc1c(OCCCN2CCOCC2)ccc2c3n(c(=NC(=O)c4cnc(N)nc4)nc12)CCN3 ?
Reply: 73.7

Query: Could you tell me which viability, T/C is on file for Cn1ncc(Cl)c1-c1cc(C(=O)NC(CN)Cc2cccc(F)c2)sc1Cl (stereo not given) + CC(Nc1ncnc2nc[nH]c12)c1cc2cccc(Cl)c2c(=O)n1-c1ccccc1 ?
Reply: 91.4

Query: Could you tell me which viability, T/C is on file for CCCS(=O)(=O)Nc1ccc(F)c(C(=O)c2c[nH]c3ncc(-c4ccc(Cl)cc4)cc23)c1F + Cc1nc(NC(=O)N2CCCC2C(N)=O)sc1-c1ccnc(C(C)(C)C(F)(F)F)c1 ?
Reply: 118

Query: Could you tell me which viability, T/C is on file for Cn1nccc1Nc1nccc(-c2ccn(C(CO)c3ccc(Cl)c(F)c3)c(=O)c2)n1 (stereo not given) + CC(Nc1ccc2c(c1)OCCn1cc(N3C(=O)OCC3C(F)F)nc1-2)C(N)=O ?
Reply: 69.8

More entries:
Query: Could you tell me which viability, T/C is on file for CC(C)NCC(C(=O)N1CCN(c2ncnc3c2C(C)CC3O)CC1)c1ccc(Cl)cc1 (stereo not given) + COc1c(OCCCN2CCOCC2)ccc2c3n(c(=NC(=O)c4cnc(N)nc4)nc12)CCN3 ?
Reply: 69.7

###

Tested on: 931267-113-T-J1-PDC multicell spheroid viability
Assay: Anticancer human tumor 931267-113-T-J1-PDC cell line growth inhibition [PI3K];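 note: viability read 7 days after compound addition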
Settings: second compound 0.01 µM; first compound 10 µM; hits give low values
Description: Combinatorial screen of targeted agents with the PI3K inhibitors inavolisib, alpelisib, duvelisib, and copanlisib in multi-cell type tumor spheroids A high-throughput screen of multi-cell type tumor spheroids was designed to identify active combinations of targeted small molecules and PI3K pathway inhibitors. […] Compounds. […] If the clinical Cmax for an agent had not been determined, the highest concentration tested was 10 microM. […]
measurement-kind: viability, T/C (%)
Please state the figure in %; there is no need to write the unit.

Recorded results for 2 molecules are shown here.
Query: Could you tell me which viability, T/C is on file for C=CC(=O)N1CCN(c2nc(=O)n(-c3c(C)ccnc3C(C)C)c3nc(-c4c(O)cccc4F)c(F)cc23)C(C)C1 (stereo not drawn) + CC(Nc1ccc2c(c1)OCCn1cc(N3C(=O)OCC3C(F)F)nc1-2)C(N)=O ?
Reply: 106

Query: Could you tell me which viability, T/C is on file for C=CC(=O)N1CCN(c2nc(=O)n(-c3c(C)ccnc3C(C)C)c3nc(-c4c(O)cccc4F)c(F)cc23)C(C)C1 (stereo not drawn) + COc1c(OCCCN2CCOCC2)ccc2c3n(c(=NC(=O)c4cnc(N)nc4)nc12)CCN3 ?
Reply: 81.1

Now examine the next entry.
Query: Could you tell me which viability, T/C is on file for C#Cc1c(F)ccc2cc(O)cc(-c3ncc4c(N5CC6CCC(C5)N6)nc(OCC56CCCN5CC(F)C6)nc4c3F)c12 (stereo not drawn) + COc1c(OCCCN2CCOCC2)ccc2c3n(c(=NC(=O)c4cnc(N)nc4)nc12)CCN3 ?
Reply: 15.9
